Hey, just so you know, these numbers are from PubChem BioAssay (EPA / NIEHS).

# Read-out: Interleukin 6 (IL6), IL6 (gene 3569)
# EXPERIMENTAL PROTOCOL: LTEA_HepaRG_IL6: Life Technologies and Expression Analysis (LTEA) Assay for Interleukin 6 (IL6) using HepaRG (AID 2283509)
# TEST PARAMETERS: mRNA level, 48 h; actives raise or lower the signal
Activity calls are given as the source filed them. How the source made its calls: active means hit-call score of the fitted dose curve at least 0.9, where 1 is the maximum; inactive means score below 0.9.
Labels: 1.0 for active, 0.0 for inactive

>>> answer_label("Cc1ccc(-c2c(Cl)nc(C#N)n2S(=O)(=O)N(C)C)cc1")
1.0
>>> answer_label("CCCCNC(=O)OCC#CI")
0.0
>>> answer_label("CCOC(=O)C(Cl)Cc1cc(-n2nc(C)n(C(F)F)c2=O)c(F)cc1Cl (stereo unspecified)")
0.0
>>> answer_label("C=CCC1=C(C)[C@@H](OC(=O)[C@@H]2[C@@H](C=C(C)C)C2(C)C)CC1=O")
0.0
>>> answer_label("CCCCNC(=O)n1c(NC(=O)OC)nc2ccccc21")
0.0
>>> answer_label("COc1ccc(C(c2ccc(OC)cc2)C(Cl)(Cl)Cl)cc1")
0.0
>>> answer_label("COC(=O)N(OC)c1ccccc1COc1ccn(-c2ccc(Cl)cc2)n1")
1.0
>>> answer_label("CNC(=S)S")
0.0
>>> answer_label("N#Cc1cc(Br)c(O)c(Br)c1")
1.0
>>> answer_label("COc1nc(NC(C)C)nc(NC(C)C)n1")
0.0
>>> answer_label("CCNc1nc(Cl)nc(NC(C)C)n1")
0.0
>>> answer_label("CCCCC(CC)COC(=O)c1ccccc1C(=O)OCC(CC)CCCC (stereo unspecified)")
0.0
>>> answer_label("CON(C)C(=O)Nc1ccc(Cl)c(Cl)c1")
0.0
>>> answer_label("CC(C)Oc1cc(-n2nc(C(C)(C)C)oc2=O)c(Cl)cc1Cl")
0.0
>>> answer_label("CCOC(=O)CC(SP(=S)(OC)OC)C(=O)OCC (stereo unspecified)")
0.0
>>> answer_label("Cc1c(F)c(F)c(COC(=O)C2C(/C=C(\\Cl)C(F)(F)F)C2(C)C)c(F)c1F (stereo unspecified)")
0.0
>>> answer_label("O=C(O)c1nc(Cl)ccc1Cl")
0.0
>>> answer_label("CCCCOC(=O)c1ccccc1C(=O)OCCCC")
0.0
>>> answer_label("CCON=C(CC)C1=C(O)CC(c2c(C)cc(C)cc2C)CC1=O (stereo unspecified)")
0.0
>>> answer_label("COC(=O)C=C(C)OP(=O)(OC)OC")
0.0
>>> answer_label("N#Cc1nn(-c2c(Cl)cc(C(F)(F)F)cc2Cl)c(N)c1S(=O)C(F)(F)F (stereo unspecified)")
1.0
>>> answer_label("CNC(=O)ON=CC(C)(C)SC")
0.0
>>> answer_label("CN(C)C(=S)SSC(=S)N(C)C")
0.0
>>> answer_label("CC1=C(C(=O)Nc2ccccc2)SCCO1")
0.0
>>> answer_label("CC(C)C1(C)N=C(c2nc3ccccc3cc2C(=O)O)NC1=O (stereo unspecified)")
0.0
>>> answer_label("COc1cnc(OC)n2nc(NS(=O)(=O)c3c(OCC(F)F)cccc3C(F)(F)F)nc12")
0.0
